Provide the recorded pIC50 for the entries that follow.
measuredOn: menin protein (Homo sapiens (Human), UniProt O00255)
Sequence (O00255 whole entry): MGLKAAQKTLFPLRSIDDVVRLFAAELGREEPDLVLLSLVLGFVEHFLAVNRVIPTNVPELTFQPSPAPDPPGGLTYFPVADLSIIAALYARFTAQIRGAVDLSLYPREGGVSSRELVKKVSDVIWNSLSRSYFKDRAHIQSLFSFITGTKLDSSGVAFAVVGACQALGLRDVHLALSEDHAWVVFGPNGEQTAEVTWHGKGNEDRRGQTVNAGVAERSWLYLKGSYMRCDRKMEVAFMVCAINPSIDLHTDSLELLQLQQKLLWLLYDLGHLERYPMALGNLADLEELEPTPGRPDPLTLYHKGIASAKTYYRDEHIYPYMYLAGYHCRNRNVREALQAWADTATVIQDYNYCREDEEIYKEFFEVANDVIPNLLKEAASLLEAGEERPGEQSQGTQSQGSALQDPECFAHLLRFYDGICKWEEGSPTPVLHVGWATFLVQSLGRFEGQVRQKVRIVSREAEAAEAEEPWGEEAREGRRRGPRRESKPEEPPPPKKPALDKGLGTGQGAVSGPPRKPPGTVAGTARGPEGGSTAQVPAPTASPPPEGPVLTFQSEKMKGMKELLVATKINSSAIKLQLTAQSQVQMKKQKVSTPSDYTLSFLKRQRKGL
assayText: biochemical
Format: binding
conditionDetails: FP competitive binding; menin protein 4 nM, FAM-MM2 probe 2 nM; read-out: Menin Binding Affinity IC50
pIC50 field: float, defined as -log10 of concentration (mol/L).

Prompt line: Input O=S(=O)(c1ccc(N2CC(CN3CCC(C4(C5CCCC5)NCCc5ccccc54)CC3)C2)cc1)C1CCCCC1 (stereo not shown) , output reported pIC50.
Response line: 7.72

Prompt line: Look up pIC50 of CNC(=O)O[C@H]1CCC[C@@H]1C(C#N)(c1ccccc1)C1CCN(CC2CN(c3ccc(S(=O)(=O)c4ccncc4)cc3)C2)CC1 (mixture of isomers) and report it.
Response line: 8.22

Prompt line: Report measured pIC50; entry is COC(=O)[C@@H]1CCC[C@H]1C(C#N)(c1ccccc1)C1CCN(CC2CN(c3ccc(S(=O)(=O)C4CC4)cc3)C2)CC1 (mixture of isomers)
Response line: 5.29

Prompt line: Return the recorded pIC50 value; entry: CS(=O)(=O)C[C@H]1CCC[C@@H]1C(C#N)(c1ccccc1)C1CCN(CC2CN(c3ccc(S(=O)(=O)c4ccncc4)cc3)C2)CC1 (mixture of isomers)
Response line: 5.33

Prompt line: Name the recorded pIC50 of the compound listed here: CNC(=O)O[C@H]1CCC[C@@H]1C(Cn1ccnc1)(c1ccccc1)C1CCN(CC2CN(c3ccc(C#N)cc3)C2)CC1 (mixture of isomers)
Response line: 8.05

Prompt line: Tell us which pIC50 value is on record for CS(=O)(=O)c1ccc(OCCCN2CCC(C3(C4CCCCC4)NCCc4ccccc43)CC2)cc1 (stereo not shown)
Response line: 5.72

Prompt line: State its pIC50: N#Cc1ccc(N2CC(CN3CCC(C4(C5CCCC5)NCCc5ccccc54)CC3)C2)nc1 (stereo not shown)
Response line: 3.24
